Hello, the source for this data is the supplement of paper PMC6555819, in case you need it.

Tested on: PPARa:RXRa (NR concentration 270 nM, RXRa partner concentration 90 nM)
test-protocol: PBM binding z-score (relative to random genomic background probes); higher = stronger binding; sequences stand for … in GC…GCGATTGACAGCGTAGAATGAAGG
measurement-kind: PBM binding z-score
Give the value as a plain number.

Known PBM binding z-score results, listed for orientation:
AGAACGAGGGCAATGAGTTGATGGCACGGGTGGC
1.25
AGAACGAGGGCACGCTGAGTTGGTAGCAGAGTAG
1.87

# PBM binding z-score (sequence: GTACCAAGGTGAATAGGGCGTTGATGAGTAGGCG ) is 1.22

# PBM binding z-score (sequence: ATCTCTATGTAACAAGTTCAGTGAAAGAGAGGAC ) is 0.267

# PBM binding z-score (sequence: TCTGCTAGGTCAACGATGGTAAGCTAATCTGCTA ) is 2.85

# PBM binding z-score (sequence: ATCGCTAGGTAACAAGTTCAGTGAAAGAGAGGAC ) is 0.506

# PBM binding z-score (sequence: CCTCGGAGGACTACAGGAGGTCAGAGCTGCCAGA ) is 1.8

# PBM binding z-score (sequence: CCTAGTTGGTCAGGAGGTTACACACCGGATATGA ) is 1.5

# PBM binding z-score (sequence: GGAACGAGGCCAAAGTTGATAGCATCTGTCGACG ) is 3.46

# PBM binding z-score (sequence: GGAACGAGGGCAAGTCGATAGCAGAGTTTGATGG ) is 1.48

# PBM binding z-score (sequence: CGTCCAAGGTCAAAGGACAGTGAAGAGATGACGG ) is 5.6

# PBM binding z-score (sequence: CCTGCTAGGTCAATGTTCAGCTAAAGCAGCTCGC ) is 3

# PBM binding z-score (sequence: TCTCGGAGGACACGAAAGGTCAGAGATCGACATC ) is 3.65

---

sequences and their reported PBM binding z-score
System: RXRa DBDmut IVT, anti-RXR (DBD mutation: RXRa K156A/R161A, NR concentration 90 nM)
test-protocol: PBM binding z-score (relative to random genomic background probes); higher = stronger binding; sequences stand for … in GC…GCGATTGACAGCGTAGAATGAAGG
Give the value as a plain number.

TCATATAGGTAATACCGGTGAAAGTCGGCATCTA
1.35
ACTAGTTGGTCAGCTGAGATCACACACAATTCGG
0.396
AATACAGGGTCATCGTAGGGCAGAGTACGCACAG
3.64
CTCGCAAGGTCGTGCTCAGGTGAGTATACCAAAC
2.15
TCATATAGGTAAATGCTAGTTGAAAGTCCGATCT
1.59

Entry AGAATGAGGTTTTACGTAGATCAGGGAAGAAAGT : PBM binding z-score on RXRa DBDmut IVT, anti-RXR (DBD mutation: RXRa K156A/R161A, NR concentration 90 nM) = 0.185

Entry AGTACGAGGGCACGCTGAGTTGATAGCAGAGTAG : PBM binding z-score on RXRa DBDmut IVT, anti-RXR (DBD mutation: RXRa K156A/R161A, NR concentration 90 nM) = 2.3

Entry CGTCCAAGGTCATAGGAGGTCAGTGAGGACAGAT : PBM binding z-score on RXRa DBDmut IVT, anti-RXR (DBD mutation: RXRa K156A/R161A, NR concentration 90 nM) = 4.28

Entry ACAGACAGGTTAGTGAAGGTAACTCAGCTGGACG : PBM binding z-score on RXRa DBDmut IVT, anti-RXR (DBD mutation: RXRa K156A/R161A, NR concentration 90 nM) = -0.188

Entry CCTACTGGGCCAAAGGTCATTCATTCCAATGCTC : PBM binding z-score on RXRa DBDmut IVT, anti-RXR (DBD mutation: RXRa K156A/R161A, NR concentration 90 nM) = 1.65

Entry CAAACTAGGTCTAGGTCAAAGTCGGTTTGTGCCA : PBM binding z-score on RXRa DBDmut IVT, anti-RXR (DBD mutation: RXRa K156A/R161A, NR concentration 90 nM) = 0.796
